The measurements presented in this section are drawn from PubChem BioAssay AID1529.

# MEASURED TARGET: Mitogen-activated protein kinase kinase kinase 3 (Homo sapiens)
# ASSAY PROTOCOL: modulators of MEKK3-MEK5 PB1 binding, primary screen, biochemical, wildtype MEKK3, multiplex bead flow cytometry, Alexa488-MEK5 (AID 1529);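 further: Alexa488 bead fluorescence after subtracting the streptavidin-only scavenger bead signal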
# COND: bead-based flow cytometry, Alexa488-MEK5 binding to MEKK3; at 10 µM; actives lie on both sides; 0 = blocked by unlabeled MEK5, 100 = vehicle
The campaign covered roughly 290,000 compounds. About 4,200 (1.4%) were called active.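 How the source made its calls: active means binding response more than 3 SD above or below the average of its plate-row segment, actives on both sides; inconclusive means wells at one plate position flagged as instrument error; inactive means the rest.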 This is one part of a sample in which actives are shown more often than they occur.
Output constraint: value belongs to active, inactive

[in] Test call for this molecule, please: `CCOC(=O)c1cc(-c2nnc(-c3cc(OC)c(OC)c(OC)c3)o2)c(C)nc1C`
[out] inactive

[in] Can you look up the reported call for `Cc1ccc(N(CCC(=O)O)S(=O)(=O)c2cccc(C(F)(F)F)c2)cc1` for me?
[out] active

[in] Per the assay record, what outcome was assigned to Cc1nc2ccc(S(=O)(=O)NC(C(=O)N3CCCCCC3)C(C)C)cc2s1 (stereo not given) ?
[out] inactive

[in] Name the outcome recorded for `CC(C)(C)NC(=O)c1ccc(Cn2cc(C(F)(F)F)ccc2=O)cc1` in the assay.
[out] inactive

[in] Assay outcome for CCn1c(SCC(=O)NC2=NCCS2)nnc1C(C)NC(=O)c1ccccc1F (stereo not given) : what was it?
[out] inactive
